- Test system: U2OS
- PROTOCOL SUMMARY: Multiplex assay against U2OS
- Type: toxicity, cell-based
- EXPERIMENTAL CONTEXT: human, 24 h, 10 µM, compound concentration 10 uM, replicate 1
# Population Hoechst High Intensity Objects (%) listing for each entry below
REPORTED METRIC: Population Hoechst High Intensity Objects (%)

>  <COMPOUND>
C[C@H](N)COC(=O)[C@@H](CCCCN)NC(=O)Cc1c(-c2ccc3ccccc3c2)[nH]c2c1ccc1ccccc12

>  <REPORTED VALUE>
2

$$$$
>  <COMPOUND>
Br.CS(=O)(=O)Nc1c(O)ccc2c1CCCC2C1=NCCN1 (stereo not drawn)

>  <REPORTED VALUE>
2

$$$$
>  <COMPOUND>
CCCCC(=O)N(Cc1ccc(-c2ccccc2-c2nnn[nH]2)cc1)[C@H](C(=O)O)C(C)C

>  <REPORTED VALUE>
2

$$$$

* * *

- Test system: HEK-293T
- PROTOCOL SUMMARY: Multiplex assay against HEK293T
- Assay type: toxicity, cell-based
- EXPERIMENTAL CONTEXT: human, 24 h, 1 µM, compound concentration 1 uM, replicate 1
# key: entry, value: Total Cell Count

>  <MOLECULE>
CCc1cc2cc(NS(=O)(=O)c3ccc(C#N)cc3)ccc2n(CC)c1=O

>  <Total Cell Count>
510

$$$$
>  <MOLECULE>
CC(/C=C1\SC(=S)N(CCCC(=O)Nc2ccc(C(=O)O)c(O)c2)C1=O)=C\c1ccccc1

>  <Total Cell Count>
604

$$$$
>  <MOLECULE>
CN(C)C(=O)Cn1cc(-c2ccc(-c3cncc4ccccc34)cc2)cn1

>  <Total Cell Count>
498

$$$$
>  <MOLECULE>
CCCCCC(O)/C=C/[C@H]1C(=O)CC(O)C1C/C=C\CCCC(=O)O (stereo partly specified)

>  <Total Cell Count>
611

$$$$
>  <MOLECULE>
CC[C@@H](C)Nc1nc(C)nc2c(-c3ccc(OC)nc3C)c(C)nn12

>  <Total Cell Count>
508

$$$$
>  <MOLECULE>
Cl.N=C(N)NC(=O)Cc1c(Cl)cccc1Cl [GUANFACINE HYDROCHLORIDE]

>  <Total Cell Count>
493

$$$$
>  <MOLECULE>
CC(C)(C)c1cc(NC(=O)Nc2ccc(-c3cn4c(n3)sc3cc(OCCN5CCOCC5)ccc34)cc2)no1

>  <Total Cell Count>
491

$$$$
>  <MOLECULE>
COc1cccc2c1c(NS(=O)(=O)c1ccc(Cl)s1)nn2Cc1cccc(CNC(=O)C(C)(C)O)c1

>  <Total Cell Count>
617

$$$$
>  <MOLECULE>
NCCc1cn(S(=O)(=O)c2c(Cl)nc3sccn23)c2ccccc12.O=C(O)C(=O)O

>  <Total Cell Count>
585

$$$$
>  <MOLECULE>
CN1CCN(c2cc(-c3ccccc3)nc(N)n2)CC1

>  <Total Cell Count>
488

$$$$
>  <MOLECULE>
CN[C@@H](C)C(=O)N[C@H](C(=O)N1CCC[C@H]1C(=O)Nc1snnc1-c1ccccc1)C1CCCCC1

>  <Total Cell Count>
601

$$$$

* * *

- System: Fibroblast
- PROTOCOL SUMMARY: Multiplex assay against human fibroblast
- Type: toxicity, cell-based
- EXPERIMENTAL CONTEXT: 24 h, 10 µM, compound concentration 10 uM, replicate 1

>  <COMPOUND>
CC(C)c1noc(N2CCC(COc3ccc(-c4ccc(S(C)(=O)=O)cc4)nc3)CC2)n1 [GSK-1292263]

>  <TARGET SYSTEM>
Fibroblast

>  <UNITS>
%

>  <Population Pyknosed Nuclei (%)>
20

$$$$
>  <COMPOUND>
CC[C@@H](C)Nc1nc(C)nc2c(-c3ccc(OC)nc3C)c(C)nn12 [PEXACERFONT]

>  <TARGET SYSTEM>
Fibroblast

>  <UNITS>
%

>  <Population Pyknosed Nuclei (%)>
27

$$$$
>  <COMPOUND>
Cl.NCCc1ccc(O)c(O)c1 [DOPAMINE HYDROCHLORIDE]

>  <TARGET SYSTEM>
Fibroblast

>  <UNITS>
%

>  <Population Pyknosed Nuclei (%)>
13

$$$$
>  <COMPOUND>
NCCc1cn(S(=O)(=O)c2c(Cl)nc3sccn23)c2ccccc12.O=C(O)C(=O)O

>  <TARGET SYSTEM>
Fibroblast

>  <UNITS>
%

>  <Population Pyknosed Nuclei (%)>
14

$$$$
>  <COMPOUND>
O=C(CCCc1ccccc1)Nc1nc2ccccc2c(=O)s1

>  <TARGET SYSTEM>
Fibroblast

>  <UNITS>
%

>  <Population Pyknosed Nuclei (%)>
20

$$$$
>  <COMPOUND>
COc1cccc2c1c(NS(=O)(=O)c1ccc(Cl)s1)nn2Cc1cccc(CNC(=O)C(C)(C)O)c1

>  <TARGET SYSTEM>
Fibroblast

>  <UNITS>
%

>  <Population Pyknosed Nuclei (%)>
13

$$$$
>  <COMPOUND>
CC(/C=C1\SC(=S)N(CCCC(=O)Nc2ccc(C(=O)O)c(O)c2)C1=O)=C\c1ccccc1

>  <TARGET SYSTEM>
Fibroblast

>  <UNITS>
%

>  <Population Pyknosed Nuclei (%)>
7

$$$$
>  <COMPOUND>
Cc1c(CC(=O)O)c2cccnc2n1Cc1ccc(S(C)(=O)=O)cc1C(F)(F)F [FEVIPIPRANT]

>  <TARGET SYSTEM>
Fibroblast

>  <UNITS>
%

>  <Population Pyknosed Nuclei (%)>
16

$$$$
>  <COMPOUND>
CC(C)COc1ccc(CNC(=O)N(Cc2ccc(F)cc2)C2CCN(C)CC2)cc1 [PIMAVANSERIN]

>  <TARGET SYSTEM>
Fibroblast

>  <UNITS>
%

>  <Population Pyknosed Nuclei (%)>
18

$$$$
>  <COMPOUND>
Cc1cnc(-c2cc(N3CCN(C(=O)CCS(C)(=O)=O)CC3)ncc2Cl)c(C)c1

>  <TARGET SYSTEM>
Fibroblast

>  <UNITS>
%

>  <Population Pyknosed Nuclei (%)>
9

$$$$
>  <COMPOUND>
Cc1onc(-c2ccccc2Cl)c1C(=O)N(C)c1ccc(Cl)cc1

>  <TARGET SYSTEM>
Fibroblast

>  <UNITS>
%

>  <Population Pyknosed Nuclei (%)>
7

$$$$
>  <COMPOUND>
N#Cc1cc(F)cc(-c2nc(-c3ccc(F)cn3)no2)c1

>  <TARGET SYSTEM>
Fibroblast

>  <UNITS>
%

>  <Population Pyknosed Nuclei (%)>
16

$$$$
>  <COMPOUND>
Br.CS(=O)(=O)Nc1c(O)ccc2c1CCCC2C1=NCCN1 (centres undefined)

>  <TARGET SYSTEM>
Fibroblast

>  <UNITS>
%

>  <Population Pyknosed Nuclei (%)>
23

$$$$
>  <COMPOUND>
O=C(NCCN1CCC(n2c(=O)[nH]c3cc(Cl)ccc32)CC1)c1ccc(F)cc1 [HALOPEMIDE]

>  <TARGET SYSTEM>
Fibroblast

>  <UNITS>
%

>  <Population Pyknosed Nuclei (%)>
24

$$$$

Origin of the recorded values: ChEMBL document CHEMBL5058577
